A431 cell killing IC50 by entry:
# Tgt: T1, ITGA2 protein on the surface of human tumor cells (human, UniProt P17301 30-1181)
# T1 sequence (looked up): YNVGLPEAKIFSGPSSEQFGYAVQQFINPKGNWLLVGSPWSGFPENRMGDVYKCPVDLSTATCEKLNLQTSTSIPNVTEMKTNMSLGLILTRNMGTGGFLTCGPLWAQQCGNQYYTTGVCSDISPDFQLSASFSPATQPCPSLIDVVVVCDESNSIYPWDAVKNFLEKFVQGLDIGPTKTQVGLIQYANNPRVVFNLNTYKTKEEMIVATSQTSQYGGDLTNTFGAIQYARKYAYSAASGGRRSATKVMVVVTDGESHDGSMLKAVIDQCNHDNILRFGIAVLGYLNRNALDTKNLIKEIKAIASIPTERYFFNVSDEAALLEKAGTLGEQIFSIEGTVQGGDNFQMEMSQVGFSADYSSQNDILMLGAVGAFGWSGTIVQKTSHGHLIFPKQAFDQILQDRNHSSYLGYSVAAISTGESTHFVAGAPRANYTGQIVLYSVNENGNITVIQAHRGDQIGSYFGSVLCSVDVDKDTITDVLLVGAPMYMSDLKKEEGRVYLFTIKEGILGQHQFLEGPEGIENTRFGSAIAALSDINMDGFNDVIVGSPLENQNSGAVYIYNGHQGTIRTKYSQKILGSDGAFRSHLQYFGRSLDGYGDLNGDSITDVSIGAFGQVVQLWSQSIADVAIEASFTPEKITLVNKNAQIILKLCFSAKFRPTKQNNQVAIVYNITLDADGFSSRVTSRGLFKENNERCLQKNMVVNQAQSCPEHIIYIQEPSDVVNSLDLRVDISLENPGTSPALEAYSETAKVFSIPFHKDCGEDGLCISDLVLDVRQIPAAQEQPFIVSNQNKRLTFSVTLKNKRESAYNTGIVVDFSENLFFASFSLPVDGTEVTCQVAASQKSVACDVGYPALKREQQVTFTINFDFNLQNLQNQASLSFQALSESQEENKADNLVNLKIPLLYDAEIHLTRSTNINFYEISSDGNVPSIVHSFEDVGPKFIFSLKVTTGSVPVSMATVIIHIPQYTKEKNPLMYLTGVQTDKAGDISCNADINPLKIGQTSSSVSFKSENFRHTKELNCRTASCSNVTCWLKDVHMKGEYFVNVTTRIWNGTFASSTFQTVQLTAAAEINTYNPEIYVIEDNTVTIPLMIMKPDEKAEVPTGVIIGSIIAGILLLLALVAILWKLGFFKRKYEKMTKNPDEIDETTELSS
# Measurement Description: cell-based or functional assay
The response must be a number in nM with no trailing unit.

Would you please look over these solved cases?
Exercise: I am curious: what A431 cell killing IC50 value has been reported for FS002-A153-H4L2-vcMMAE (antibody, human IgG1, kappa, V domains shown, vc-MMAE, attachment residues not stated; vc-MMAE (mc-vc-PAB-MMAE) conjugated after TCEP reduction, DAR 3.8 per antibody; attachment residues not stated) VH: QVQLVQSGAEVKKPGASVKVSCKASGYTFTDYEMHWVRQAPGQGLEWMGTIDPETGGTTYAQKFQGRVTLTADTSISTAYMELSRLRSDDTAVYYCSRSGYYVSSYESYAMDYWGQGTTVTVSS VL: DIVMTQSPDSLAVSLGERVTMNCKSSQSLLNSGNQKNYLTWYQQKPGQPPKLLIYGASTRESGVPDRFSGSGSGTDFTLTISSLQAEDVAVYYCQNDYSYPFTFGGGTKLEIKR ?
Key: 0.057

Exercise: Which measured A431 cell killing IC50 value corresponds to FS002-A153-H5L5-vcMMAE (antibody, human IgG1, kappa, V domains shown, vc-MMAE, attachment residues not stated; vc-MMAE (mc-vc-PAB-MMAE) conjugated after TCEP reduction, DAR 4.0 per antibody; attachment residues not stated) VH: QVQLVQSGAEVKKPGASVKVSCKASGYTFTDYEMHWVRQAPGQGLEWMGTIDPETGGTTYAQKFQGRVTMTADTSISTAYMELSRLRSDDTAVYYCARSGYYVSSYESYAMDYWGQGTTVTVSS VL: EIVMTQSPPTLSLSPGERVTMSCRSSQSLLNSGNQKNYLTWYQQKPGQAPRLLIYGASTRESGVPARFSGSGSGTDFTLTISSLQPEDFAVYYCQNDYSYPFTFGGGTKLEIKR ?
Key: 0.073

Exercise: For the binder FS002-A153-H3L3-vcMMAE (antibody, human IgG1, kappa, V domains shown, vc-MMAE, attachment residues not stated; vc-MMAE (mc-vc-PAB-MMAE) conjugated after TCEP reduction, DAR 3.8 per antibody; attachment residues not stated) VH: QVQLVQSGAEVKKPGASVKLSCKASGYTFTDYEMHWVRQAPGQGLEWIGTIDPETGGTTYNQKFQGRVTLTADTSISTAYMELSRLRSDDTAVYYCSRSGYYVSSYESYAMDYWGQGTTVTVSS VL: DIVMTQSPDSLAVSLGERATINCKSSQSLLNSGNQKNYLTWYQQKPGQPPKLLIYGASTRESGVPDRFSGSGSGTDFTLTISSLQAEDVAVYYCQNDYSYPFTFGGGTKLEIKR , what A431 cell killing IC50 is on record?
Key: 0.088

Exercise: Fill in: A431 cell killing IC50 of FS002-A153-H5L2-vcMMAE (antibody, human IgG1, kappa, V domains shown, vc-MMAE, attachment residues not stated; vc-MMAE (mc-vc-PAB-MMAE) conjugated after TCEP reduction, DAR 3.5 per antibody; attachment residues not stated) VH: QVQLVQSGAEVKKPGASVKVSCKASGYTFTDYEMHWVRQAPGQGLEWMGTIDPETGGTTYAQKFQGRVTMTADTSISTAYMELSRLRSDDTAVYYCARSGYYVSSYESYAMDYWGQGTTVTVSS VL: DIVMTQSPDSLAVSLGERVTMNCKSSQSLLNSGNQKNYLTWYQQKPGQPPKLLIYGASTRESGVPDRFSGSGSGTDFTLTISSLQAEDVAVYYCQNDYSYPFTFGGGTKLEIKR is ___
Key: 0.028

Exercise: Record request: A431 cell killing IC50 value, item FS002-A103-H4L4-vcMMAE (antibody, human IgG1, kappa, V domains shown, vc-MMAE, attachment residues not stated; vc-MMAE (mc-vc-PAB-MMAE) conjugated after TCEP reduction, DAR 3.7 per antibody; attachment residues not stated) VH: QVQLVQSGAEVKKPGASVKVSCKASGYTFTDYEMHWVRQAPGQGLEWMGVIDPETGGTTYNQKFQGRVTLTADTSISTAYMELSRLRSDDTAVYYCSRSGYYVSSYESYAMDYWGQGTTVTVSS VL: EIVMTQSPPTLSLSPGERVTLSCRASENVGTYVSWYQQKPGQAPRLLIYGASTRESGIPARFSGSGSGTDFTLTISSLQPEDFAVYYCQNDYSYPFTFGGGTKLEIKR
Key: 0.052

Exercise: Reported A431 cell killing IC50, binder FS002-A103-H4L2-vcMMAE (antibody, human IgG1, kappa, V domains shown, vc-MMAE, attachment residues not stated; vc-MMAE (mc-vc-PAB-MMAE) conjugated after TCEP reduction, DAR 3.5 per antibody; attachment residues not stated) VH: QVQLVQSGAEVKKPGASVKVSCKASGYTFTDYEMHWVRQAPGQGLEWMGVIDPETGGTTYNQKFQGRVTLTADTSISTAYMELSRLRSDDTAVYYCSRSGYYVSSYESYAMDYWGQGTTVTVSS VL: EIVMTQSPKTMSMSPGERVTLSCKASENVGTYVSWYQQKPGQAPRLLIYGASTRESGVPDRFSGSGSGTDFTLTISSLQPEDFAVYYCQNDYSYPFTFGGGTKLEIKR : ____
Key: 0.061

Exercise: Quick check: A431 cell killing IC50 of FS002-A226-H5L4-vcMMAE (antibody, human IgG1, kappa, V domains shown, vc-MMAE, attachment residues not stated; vc-MMAE (mc-vc-PAB-MMAE) conjugated after TCEP reduction, DAR 3.8 per antibody; attachment residues not stated) VH: QVQLVQSGAEVKKPGASVKVSCKASGYTFTDYEIHWVRQAPGQGLEWMGAIDPETGGTNYAQKFQGRVTMTADTSISTAYMELSRLRSDDTAVYYCSRSGYYVSNYESYAMDYWGQGTTVTVSS VL: DIQLTQSPSSLSASVGDRVTITCRASQDIKSYLSWYQQKPGKAPKLLIYDTSNLASGVPSRFSGSGSGTDFTLTISSLQPEDFATYYCQQWSSYPFTFGGGTKLEIKR ?
Key: 0.049

Exercise: Return reported A431 cell killing IC50; argument: FS002-A103-H4L3-vcMMAE (antibody, human IgG1, kappa, V domains shown, vc-MMAE, attachment residues not stated; vc-MMAE (mc-vc-PAB-MMAE) conjugated after TCEP reduction, DAR 3.5 per antibody; attachment residues not stated) VH: QVQLVQSGAEVKKPGASVKVSCKASGYTFTDYEMHWVRQAPGQGLEWMGVIDPETGGTTYNQKFQGRVTLTADTSISTAYMELSRLRSDDTAVYYCSRSGYYVSSYESYAMDYWGQGTTVTVSS VL: EIVMTQSPPTMSMSPGERVTLSCKASENVGTYVSWYQQKPGQAPRLLIYGASTRESGVPARFSGSGSGTDFTLTISSLQPEDFAVYYCQNDYSYPFTFGGGTKLEIKR
Key: 0.07

---
Exercise: Which A431 cell killing IC50 is listed for FS002-A153-H5L1-vcMMAE (antibody, human IgG1, kappa, V domains shown, vc-MMAE, attachment residues not stated; vc-MMAE (mc-vc-PAB-MMAE) conjugated after TCEP reduction, DAR 3.7 per antibody; attachment residues not stated) VH: QVQLVQSGAEVKKPGASVKVSCKASGYTFTDYEMHWVRQAPGQGLEWMGTIDPETGGTTYAQKFQGRVTMTADTSISTAYMELSRLRSDDTAVYYCARSGYYVSSYESYAMDYWGQGTTVTVSS VL: DIVMTQSPDSLAVSLGERVTMSCKSSQSLLNSGNQKNYLTWYQQKPGQPPKLLIYGASTRESGVPDRFTGSGSGTDFTLTISSLQAEDVAVYYCQNDYSYPFTFGGGTKLEIKR ?
Key: 0.082

Exercise: Which A431 cell killing IC50 reading was recorded for the binder FS002-A208-H5L4-vcMMAE (antibody, human IgG1, kappa, V domains shown, vc-MMAE, attachment residues not stated; vc-MMAE (mc-vc-PAB-MMAE) conjugated after TCEP reduction, DAR 4.0 per antibody; attachment residues not stated) VH: QVQLVQSGAEVKKPGASVKVSCKASGYTFTDYEIHWVRQAPGQGLEWMGAIDPETGGTNYAQKFQGRVTMTADTSISTAYMELSRLRSDDTAVYYCSRSGYYVSNYESYAMDYWGQGTTVTVSS VL: DIQMTQSPSSLSASVGDRVTITCRASQNVGTNVAWYQQKPEKAPKSLIYSASYRFSGVPSRFSGSGSGTDFTLTISSLQPEDFATYYCQQYNIYPLSFGGGTKLELKR ?
Key: 0.083

Exercise: Which A431 cell killing IC50 reading was recorded for the binder FS002-A208-H4L4-vcMMAE (antibody, human IgG1, kappa, V domains shown, vc-MMAE, attachment residues not stated; vc-MMAE (mc-vc-PAB-MMAE) conjugated after TCEP reduction, DAR 4.1 per antibody; attachment residues not stated) VH: QVQLVQSGAEVKKPGASVKVSCKASGYTFTDYEIHWVRQAPGQGLEWIGAIDPETGGTNYNQKFQGRVTLTADTSISTAYMELSRLRSDDTAVYYCSRSGYYVSNYESYAMDYWGQGTTVTVSS VL: DIQMTQSPSSLSASVGDRVTITCRASQNVGTNVAWYQQKPEKAPKSLIYSASYRFSGVPSRFSGSGSGTDFTLTISSLQPEDFATYYCQQYNIYPLSFGGGTKLELKR ?
Key: 0.051
